Biological target: T1, PTPN13_1, Q12923
T1 sequence (Q12923 1088-1188, limits assumed, looked up): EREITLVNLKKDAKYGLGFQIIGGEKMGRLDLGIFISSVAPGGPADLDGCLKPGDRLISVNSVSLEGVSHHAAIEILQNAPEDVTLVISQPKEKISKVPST
Assay: holdup assay
Design: key: below the threshold = too weak to quantify, mostly under pKd 3.1 to 4
Conditions: plain residues with an end cap or a label only (N-terminal biotin on a linker: ahx)

| BINDER | pKd |
| --- | --- |
| KEYDDELTFF [USH1C, Q9Y6N9] | below the threshold |
| PKMKLNETSF [SHKBP1, Q8TBC3] | below the threshold |
| ADENEQVSAV [RAPGEF6, Q8TEU7] | below the threshold |
| SKKNELFSNL [NHERF1, O14745] | below the threshold |
| AKPQPVDSWV [ARVCF, O00192] | below the threshold |
| KDECVIATEV [DLL1, O00548] | below the threshold |
| YNSFLSVTTV [PDZRN3, Q9UPQ7] | below the threshold |
| HSATSVHTSV [MTMR1, Q13613] | below the threshold |
| SAPATLSSRA [PDLIM2, Q96JY6] | below the threshold |
| VNENQKEYFF [CNTNAP4, Q9C0A0] | below the threshold |
